# Tested on: SK-MEL-2 melanoma
# experiment: NCI-60 one-dose screen, 48 h
# measurement.context: 10 µM unless noted
The panel holds about 83,000 compounds, 20% with a hit somewhere; the sample as a whole holds those more often. The source made the active and inactive calls. Rule for the calls: active = growth percent below 10; inactive = the rest.
I would appreciate it if you answered using one of these outcomes: active, inactive

See these solved cases before continuing.
1. COc1ccc(Nc2ncc(Br)c(NCCCNC(=O)C3CCC3)n2)cc1    inactive
2. Cc1cc2c(F)c(Oc3ncnc(Nc4ccc(N5C[C@@H](C)N[C@@H](C)C5)cc4)c3C#N)cc(F)c2[nH]1    inactive
3. C=C1C(=O)O[C@H]2[C@H]1CC/C(C(=O)NCCCCCCCCNC(=O)/C1=C/CC[C@@]3(C)O[C@H]3[C@H]3OC(=O)C(=C)[C@@H]3CC1)=C\CC[C@@]1(C)O[C@@H]21    inactive
4. CCOC(=O)c1nnn(C(Cc2ccccc2Cl)C(=O)OCC)c1C (centres undefined)    inactive

In: What call does the record list for COc1cc(/C=C/C(=O)c2cccc(-n3cc(-c4ccccc4)[nH]c3=O)c2)cc(OC)c1OC ?
Out: active

In: Record request — test call for CCCCCCCC/C=C/CCCCCCCC1=NCC[N+]1(CCO)CCO
Out: inactive

In: Record lookup: outcome of this test for O=C1c2ccccc2C2(c3ccc(O)cc3)c3ccccc3Oc3cccc1c32 (centres undefined) ?
Out: inactive

In: Short answer needed: outcome of this test for COc1cc2c(cc1OC)-c1ccc3cc4c(cc3c1N(CCN1CCCC1)C2)OCO4 ?
Out: inactive

In: Which outcome was assigned to CCCCCOC(=O)c1ccc(NC(=O)CNCC(C)C)cc1 in this test?
Out: inactive
